Measured values drawn from patent US8691993B2 for this set.

Test system: Th2 cells
Assay name: DK-PGD2-Induced IL-13 Production Assay in Th2 Cells
Format: cell-based
Condition: inhibition of IL-13 production; human Th2 cells; 500 nM DK-PGD2; 4 hrs at 37° C.; ELISA
pIC50: −log10 of the molar value.
Assay metric: pIC50

Worked cases, pIC50 given:
Cc1c(CC(=O)O)cc2ccc(F)cc2c1C1CCN(S(=O)(=O)c2ccccc2Cl)CC1 [Example 14] : 7.48
Cc1c(CC(=O)O)cc2ccc(F)cc2c1C1CCN(S(=O)(=O)C2CCCC2)CC1 [Example 24] : 7.64

[1] Cc1c(CC(=O)O)cc2ccc(F)cc2c1C1CCN(S(=O)(=O)c2ccc(Cl)cc2Cl)CC1 [Example 16]
[2] COc1ccccc1NC(=O)N1CCC(c2c(C)c(CC(=O)O)cc3ccc(F)cc23)CC1 [Example 35]
Lookup: Sorting ascending by pIC50, which comes first: 1 or 2 ? Field: selected label. Fill in the label of the entry you choose.
Found: 2
